- Test system: MDA-MB-468 breast
- Protocol Notes: NCI tumour cell line growth inhibition, 48 h
Measured Parameter: GI50

{"Compound": "CCN(CC)c1ccc(C=C2C(=O)NC(=S)NC2=O)cc1", "Measured Value": "2.37 µM"}
{"Compound": "O=c1c2cc(F)ccc2sc2c(NCCCNCCO)nc3ccc(F)cc3c12", "Measured Value": "1.78 µM"}
{"Compound": "N#CSc1c[nH]c2cccc(/C=C/C(=O)/C=C(O)/C=C/c3cccc4[nH]cc(SC#N)c34)c12", "Measured Value": "0.496 µM"}
{"Compound": "N=C(N)c1ccc(-c2ccc(-c3cccs3)s2)cc1F", "Measured Value": "0.0464 µM"}
{"Compound": "CC(=O)Nc1ccc(S(=O)(=O)N2C(=O)CCC2C(=O)Nc2ccccc2)cc1 (stereo not given)", "Measured Value": "1.76 µM"}

###

- Test system: MDA-MB-468 breast
- Protocol Notes: NCI tumour cell line growth inhibition, 48 h
// reported TGI for each item listed
Measured Parameter: TGI (µM)

{"Compound": "N#CSc1c[nH]c2cccc(/C=C/C(=O)/C=C(O)/C=C/c3cccc4[nH]cc(SC#N)c34)c12", "Unit Info": "µM", "Sign Qualifier": "=", "Measured Value": 1.22}
{"Compound": "FC(F)(F)c1ccc(-c2cnc(-c3nn[nH]n3)nc2NC2CCCCCC2)cc1", "Unit Info": "µM", "Sign Qualifier": ">", "Measured Value": 10}
{"Compound": "CCn1nc(C#Cc2c(C)ccc3c(Nc4ccc(Cl)cc4)nccc23)c2c(N)ncnc21", "Unit Info": "µM", "Sign Qualifier": "=", "Measured Value": 10.5}
{"Compound": "N/C(=N\\O)c1cn(C2OC(CO)C(O)C2O)c2ncnc(N)c12 (stereo not given)", "Unit Info": "µM", "Sign Qualifier": "=", "Measured Value": 0.453}
{"Compound": "CC1(C)N=C(N)N=C(N)N1c1cccc(CC(=O)Nc2ccccc2)c1", "Unit Info": "µM", "Sign Qualifier": ">", "Measured Value": 100}

###

- System: MDA-MB-468 breast
- Protocol Notes: NCI tumour cell line growth inhibition, 48 h; in the data active = GI50 below about 0.43 µM; inactive = the rest
Outcome codes: active, inactive

{"Molecule": "CC1(C)CCC(c2ccc(Cl)cc2)=C(CN2CCN(c3ccc(C(=O)NS(=O)(=O)c4ccc(N[C@H](CCN5CCOCC5)CSc5ccccc5)c(S(=O)(=O)C(F)(F)F)c4)cc3)CC2)C1", "Group Label": "inactive"}
{"Molecule": "Cc1ccccc1C1N=C2Oc3ccccc3C=C2C(=O)N1 (stereo not drawn)", "Group Label": "inactive"}
{"Molecule": "Nc1ncnc2c1ncn2C1SC(CO)C(O)C1O (stereo not drawn)", "Group Label": "inactive"}
{"Molecule": "CC/C(=C\\c1ccc(N(C)C)cc1)c1ccncc1", "Group Label": "inactive"}
{"Molecule": "Nc1nc(-c2ccccn2)c(-c2ccc3ncccc3n2)s1", "Group Label": "inactive"}
{"Molecule": "COc1cc(C(=O)N[C@@H]2CCCN(C)C2)ccc1Nc1ncc2c(n1)N(C1CCCC1)CC(C)(C)C(=O)N2C", "Group Label": "active"}
{"Molecule": "O=c1[nH]c2c(ccc3cnccc32)c2c1CCC2", "Group Label": "active"}
{"Molecule": "COc1cccc(-c2cc(-c3ccc(Nc4nc(Nc5ccc(Cl)cc5)nc(Nc5ccc(Cl)cc5)n4)cc3)nc(N)c2C#N)c1", "Group Label": "inactive"}

###

Measured TGI by item
- Tested on: MDA-MB-468 breast
- Protocol Notes: NCI tumour cell line growth inhibition, 48 h
Measured Parameter: TGI (µM)

{"Compound": "Nc1nc(-c2ccccn2)c(-c2ccc3ncccc3n2)s1", "Sign Qualifier": ">", "Measured Value": 25}
{"Compound": "CCCN1CCCC(c2ccc(Nc3nc(Nc4cc(F)ccc4C(N)=O)c4cc[nH]c4n3)c(OC)c2)C1 (stereo not given)", "Sign Qualifier": "=", "Measured Value": 6.73}
{"Compound": "C=C1C(=O)O[C@H]2[C@H]1CC/C(COC(=O)NCc1ccc(Cn3c(=O)sn(CCCI)c3=O)cc1)=C\\CC[C@@]1(C)O[C@@H]21", "Sign Qualifier": "=", "Measured Value": 3.48}
{"Compound": "O=C(NO)c1ccc(Cn2ccc3c(Nc4ccccc4)ncnc32)cc1", "Sign Qualifier": "=", "Measured Value": 2.76}
{"Compound": "O=c1[nH]c2c(ccc3cnccc32)c2c1CCC2", "Sign Qualifier": "=", "Measured Value": 0.549}
{"Compound": "CCOc1ccc(-c2nc3ccc(-c4nc5ccc(N6CCN(C)CC6)cc5[nH]4)cc3[nH]2)cc1OCC", "Sign Qualifier": "=", "Measured Value": 4.6}
{"Compound": "OC1(c2ccccc2)c2ccccc2N(c2ccccc2)c2ccc(Cl)cc21 (stereo not given)", "Sign Qualifier": "=", "Measured Value": 0.317}
{"Compound": "Cc1n[nH]c(C)c1-c1c(C)n[nH]c1C", "Sign Qualifier": "=", "Measured Value": 4.75}
{"Compound": "O=c1c2cc(F)ccc2sc2c(NCCCNCCO)nc3ccc(F)cc3c12", "Sign Qualifier": "=", "Measured Value": 3.47}
{"Compound": "COc1ccc(-c2cc(-c3ccc(Cl)cc3)c(C#N)c(=O)n2CCCCCC(=O)Nc2ccccc2N)cc1", "Sign Qualifier": "=", "Measured Value": 31.5}

###

- Test system: MDA-MB-468 breast
- Protocol Notes: NCI tumour cell line growth inhibition, 48 h; in the data active = GI50 below about 0.43 µM; inactive = the rest
Classes used: active, inactive

{"Chem Smiles": "CCCCCCCCCCCCNC(=O)N[C@H](C(=O)N[C@H]1/C=C/OCCNC(=O)/C=C/[C@H](C(C)C)NC1=O)C(C)C", "Group Label": "inactive"}
{"Chem Smiles": "CNC(=S)N/N=C/CSC/C=N/NC(=S)NC", "Group Label": "inactive"}
{"Chem Smiles": "COc1cnc2c(c1)C(=O)c1c-2n(CCCN2CCNCC2)c(=O)c2cc(F)ccc12", "Group Label": "active"}
{"Chem Smiles": "CN(C)CCCn1c2c(c3ccc(N4CCNCC4)cc3c1=O)C(=O)c1ccccc1-2", "Group Label": "inactive"}
{"Chem Smiles": "COc1cc(-c2nn(-c3cccc(NC(=O)NCCNC(=O)c4ccccc4)c3)cc2-c2ccncc2)ccc1Cl", "Group Label": "inactive"}

###

- Test system: MDA-MB-468 breast
- Protocol Notes: NCI tumour cell line growth inhibition, 48 h
# key: entry, value: TGI

{"Compound": "C=C(C)[C@@H]1CC[C@]2(C(=O)OC)CC[C@]3(C)[C@H](CC[C@@H]4[C@@]5(C)CC/C(=N\\OCCC(=NCCC#N)NOCCC#N)C(C)(C)[C@@H]5CC[C@]43C)[C@@H]12", "Unit Info": "µM", "Sign Qualifier": ">", "TGI": 50}
{"Compound": "COc1ncc(-c2ccc3nc(N)n(-c4ccccc4C(F)(F)F)c(=O)c3c2)cc1S(=O)(=O)Nc1ccc(F)cc1F", "Unit Info": "µM", "Sign Qualifier": "=", "TGI": 2.92}
{"Compound": "Nc1nc(N)c2nc(CNc3ccc(C(=O)NC(CCC(=O)O)C(=O)O)cc3)cnc2n1 (stereo unspecified)", "Unit Info": "µM", "Sign Qualifier": ">", "TGI": 100}
{"Compound": "CCCCCCCCCCCCNC(=O)N[C@H](C(=O)N[C@H]1/C=C/OCCNC(=O)/C=C/[C@H](C(C)C)NC1=O)C(C)C", "Unit Info": "µM", "Sign Qualifier": "=", "TGI": 6.74}
{"Compound": "NC1=Nc2cc(OCCCCN3Cc4ccccc4C3)c(OCC3CC3)cc2C12CCCC2", "Unit Info": "µM", "Sign Qualifier": "=", "TGI": 2.75}
{"Compound": "CC1(C)CC[C@]2(C(=O)O)CC[C@]3(C)C(=CC[C@@H]4[C@@]5(C)C/C(=C/c6cccnc6)[C@H](O)C(C)(C)[C@@H]5CC[C@]43C)[C@@H]2C1", "Unit Info": "µM", "Sign Qualifier": "=", "TGI": 88.3}
